# Tested target: human factor XIa (Homo sapiens)
# Construct: purchased Kordia
# Sequence (P03951 388-625 limits assumed): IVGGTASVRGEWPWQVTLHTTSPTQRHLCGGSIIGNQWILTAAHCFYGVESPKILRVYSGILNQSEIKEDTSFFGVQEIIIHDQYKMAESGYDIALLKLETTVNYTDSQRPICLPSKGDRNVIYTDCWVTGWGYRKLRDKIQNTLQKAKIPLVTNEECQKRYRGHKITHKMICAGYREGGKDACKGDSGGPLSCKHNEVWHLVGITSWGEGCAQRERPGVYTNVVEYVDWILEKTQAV
# Sequence (P03951 19-387 partner limits assumed): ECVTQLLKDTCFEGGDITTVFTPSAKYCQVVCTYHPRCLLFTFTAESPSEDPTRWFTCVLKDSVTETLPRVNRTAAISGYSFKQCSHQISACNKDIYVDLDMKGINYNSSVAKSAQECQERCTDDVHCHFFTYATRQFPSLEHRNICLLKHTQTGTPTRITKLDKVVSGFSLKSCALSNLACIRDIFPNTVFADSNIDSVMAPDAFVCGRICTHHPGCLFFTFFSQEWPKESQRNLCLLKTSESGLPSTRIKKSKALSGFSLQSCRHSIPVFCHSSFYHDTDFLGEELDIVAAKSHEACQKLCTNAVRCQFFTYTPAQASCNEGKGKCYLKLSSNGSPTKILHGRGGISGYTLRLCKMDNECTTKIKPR
# Test summary: Measurement of FXIa inhibition (fluorogenic peptide substrate)
# Type: biochemical
# Experimental conditions: human factor XIa from Kordia, substrate Boc-Glu(OBzl)-Ala-Arg-AMC, 30 min at 22° C.; read-out: IC50 (FXIa inhibition)
Structures can show the parent of a compound that is named as a salt.
# rule met = IC50 below 4 nM (exclusive); rule not met = IC50 at/above 4 nM

Molecule	Qualitative label
Cc1nc(C(=O)N[C@H]2CCNC2)ccc1-c1ccc(C[C@H](NC(=O)[C@H]2CC[C@H](CN)CC2)C(=O)Nc2ccc3[nH]c(=O)[nH]c3c2)cc1 [Example 14, hydrochloride]	rule not met

# input for lookup
Would you kindly verify if IC50 of Cc1nc(C(=O)NC(C)C)ccc1-c1ccc(C[C@H](NC(=O)[C@H]2CC[C@H](CN)CC2)C(=O)Nc2ccc3[nH]c(=O)[nH]c3c2)cc1 [Example 40, hydrochloride] is strictly less than 4 nM?
rule not met

* * *

Recorded pIC50 by entry
# Tested target: human factor XIa (Homo sapiens)
# Construct: purchased Kordia
# Test summary: Measurement of FXIa inhibition (fluorogenic peptide substrate)
# Format: biochemical
# Experimental conditions: human factor XIa from Kordia, substrate Boc-Glu(OBzl)-Ala-Arg-AMC, 30 min at 22° C.; read-out: IC50 (FXIa inhibition)
Where a name gives a salt, the structure may show the parent alone.
Lab note — pIC50 values are minus log10 of concentrations in M.

Molecule	Tested target	pIC50
Cc1cc(C(=O)N2CC(C)NC(C)C2)ncc1-c1ccc(C[C@H](NC(=O)C2CCC(CN)CC2)C(=O)Nc2ccc(-c3nnn[nH]3)cc2)cc1 (some centres unmarked) [Example 6, hydrochloride]	human factor XIa (Homo sapiens)	8.39
Cc1nc(C(=O)NC2C3CNCC32)ccc1-c1ccc(C[C@H](NC(=O)[C@H]2CC[C@H](CN)CC2)C(=O)Nc2ccc(-c3nn[nH]n3)cc2)cc1 (some centres unmarked) [Example 16, hydrochloride]	human factor XIa (Homo sapiens)	8.09
CCN(CC)CCNC(=O)c1ccc(-c2ccc(C[C@H](NC(=O)[C@H]3CC[C@H](CN)CC3)C(=O)Nc3ccc(-c4nn[nH]n4)cc3)cc2)c(C(F)(F)F)n1 [Example 1, hydrochloride]	human factor XIa (Homo sapiens)	8.70

Field request: pIC50 | item: Cc1nc(C(=O)NC(C)C(F)(F)F)ccc1-c1ccc(C[C@H](NC(=O)[C@H]2CC[C@H](CN)CC2)C(=O)Nc2ccc3[nH]c(=O)[nH]c3c2)cc1 (some centres unmarked) [Example 36, hydrochloride]
7.96

So what's the measured pIC50 for this one? Cc1cc(C(=O)N2CCNC(C)C2)ncc1-c1ccc(C[C@H](NC(=O)[C@H]2CC[C@H](CN)CC2)C(=O)Nc2ccc(-c3nnn[nH]3)cc2)cc1 (some centres unmarked) [Example 25, hydrochloride]
8.38

Query (molecule): Cc1nc(C(=O)N[C@H](C)CO)ccc1-c1ccc(C[C@H](NC(=O)[C@H]2CC[C@H](CN)CC2)C(=O)Nc2ccc(-c3nn[nH]n3)cc2)cc1 [Example 29, hydrochloride] ; field requested: pIC50
8.62

Can you look up the measured pIC50 of Cc1nc(C(=O)N[C@H]2CC[C@H](N)CC2)ccc1-c1ccc(C[C@H](NC(=O)[C@H]2CC[C@H](CN)CC2)C(=O)Nc2ccc(-c3nn[nH]n3)cc2)cc1 [Example 31, hydrochloride] for me?
8.72

Which value of pIC50 has been reported for Cc1nc(C(=O)N[C@@H]2CCN(C)C2)ccc1-c1ccc(C[C@H](NC(=O)[C@H]2CC[C@H](CN)CC2)C(=O)Nc2ccc(-c3nn[nH]n3)cc2)cc1 [Example 19, hydrochloride] in the records?
8.35
